- Organism: Homo sapiens
- Procedure Summary: Selectivity index, ratio of IC50 for human MAO-A to IC50 for human MAO-B
compounds and their reported Ratio IC50
Measured Metric: Ratio IC50

| Compound | Relation Symbol | Experimental Value |
| --- | --- | --- |
| CN1N=C(c2ccccc2)CC1c1cccc(F)c1 (stereo not given) | = | 30 |
| CN1N=C(c2ccc(O)cc2O)CC1c1ccccc1Cl (stereo not given) | = | 3.7 |
| CN1N=C(c2ccc(O)cc2O)CC1c1cccc(Cl)c1 (stereo not given) | = | 2.3 |
| Cc1cccc(C2CC(c3ccc(O)cc3)=NN2C)c1 (stereo not given) | = | 2.8 |
| Cc1ccc(C2CC(c3ccc(O)cc3)=NN2C)cc1 (stereo not given) | = | 4.8 |
| CN1N=C(c2ccc(O)cc2)CC1c1cccc(F)c1 (stereo not given) | > | 31 |
| CN1N=C(c2ccc(O)cc2)CC1c1ccc(Cl)cc1 (stereo not given) | = | 4.8 |
| Cc1ccccc1C1CC(c2ccc(O)cc2)=NN1C (stereo not given) | = | 1.1 |
| CN1N=C(c2ccc(O)cc2)CC1c1ccccc1 (stereo not given) | > | 3.7 |
| CN1N=C(c2ccccc2)CC1c1ccccc1F (stereo not given) | = | 10 |
| CN1N=C(c2ccccc2)CC1c1cccc(Cl)c1 (stereo not given) | = | 61 |
| Cc1ccc(C2CC(c3ccccc3)=NN2C)cc1 (stereo not given) | = | 145 |
| Cc1cccc(C2CC(c3ccccc3)=NN2C)c1 (stereo not given) | > | 909 |
| CN1N=C(c2ccc(O)cc2O)CC1c1ccc(Cl)cc1 (stereo not given) | = | 4.1 |
| CN1N=C(c2ccc(O)cc2)CC1c1ccc(F)cc1 (stereo not given) | > | 27 |
| CN1N=C(c2ccccc2)CC1c1ccccc1Cl (stereo not given) | > | 27 |
| CN1N=C(c2ccc(O)cc2)CC1c1cccc(Cl)c1 (stereo not given) | = | 9 |
| CN1N=C(c2ccc(O)cc2O)CC1c1ccccc1F (stereo not given) | > | 26 |
| CN1N=C(c2ccccc2)CC1c1ccccc1 (stereo not given) | = | 14 |
| Cc1ccccc1C1CC(c2ccccc2)=NN1C (stereo not given) | = | 30 |
| Cc1ccccc1C1CC(c2ccc(O)cc2O)=NN1C (stereo not given) | = | 1.9 |
| CN1N=C(c2ccccc2)CC1c1ccc(F)cc1 (stereo not given) | = | 21 |
| CN1N=C(c2ccccc2)CC1c1ccc(Cl)cc1 (stereo not given) | > | 25 |
| CN1N=C(c2ccc(O)cc2)CC1c1ccccc1F (stereo not given) | > | 33 |
| CN1N=C(c2ccc(O)cc2)CC1c1ccccc1Cl (stereo not given) | = | 1.1 |

====

- Assayed System: UniProtKB P27338
- Sequence (P27338 whole entry): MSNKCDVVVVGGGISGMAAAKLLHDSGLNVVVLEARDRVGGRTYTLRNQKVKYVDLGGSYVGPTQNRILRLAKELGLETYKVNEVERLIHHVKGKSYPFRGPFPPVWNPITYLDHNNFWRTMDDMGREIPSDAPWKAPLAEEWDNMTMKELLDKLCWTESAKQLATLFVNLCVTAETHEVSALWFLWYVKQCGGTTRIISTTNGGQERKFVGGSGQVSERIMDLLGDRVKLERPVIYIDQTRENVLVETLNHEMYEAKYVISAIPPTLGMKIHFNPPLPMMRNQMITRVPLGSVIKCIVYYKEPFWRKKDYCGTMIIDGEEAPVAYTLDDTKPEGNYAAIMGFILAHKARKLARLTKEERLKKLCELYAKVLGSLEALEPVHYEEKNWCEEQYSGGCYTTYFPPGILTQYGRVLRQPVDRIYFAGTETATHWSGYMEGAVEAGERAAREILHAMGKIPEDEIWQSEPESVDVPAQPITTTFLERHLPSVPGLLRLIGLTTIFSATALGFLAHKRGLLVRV
- Procedure Summary: biochemical
- Description: Inhibition of human recombinant microsomal MAO-B expressed in baculovirus-infected insect BTI-TN-5B1-4 cells assessed as p-tyramine conversion to H2O2 by fluorescence assay
molecules and their reported log10 of IC50
Measured Metric: log10 of IC50 (log10 of the value in nM)

| Molecule | log10 of IC50 |
| --- | --- |
| CN1N=C(c2ccc(O)cc2)CC1c1ccc(Cl)cc1 (stereo not given) | 3.42 |
| CN1N=C(c2ccc(O)cc2)CC1c1cccc(F)c1 (stereo not given) | 3.50 |
| Cc1ccc(C2CC(c3ccc(O)cc3)=NN2C)cc1 (stereo not given) | 3.28 |
| CN1N=C(c2ccc(O)cc2O)CC1c1ccc(Cl)cc1 (stereo not given) | 2.53 |
| CN1N=C(c2ccccc2)CC1c1ccccc1 (stereo not given) | 2.08 |
| CN1N=C(c2ccc(O)cc2)CC1c1ccccc1F (stereo not given) | 3.48 |
| CN1N=C(c2ccccc2)CC1c1ccc(Cl)cc1 (stereo not given) | 3.60 |
| CN1N=C(c2ccc(O)cc2O)CC1c1cccc(Cl)c1 (stereo not given) | 2.26 |
| Cc1ccccc1C1CC(c2ccc(O)cc2)=NN1C (stereo not given) | 4.30 |
| Cc1ccccc1C1CC(c2ccccc2)=NN1C (stereo not given) | 2.04 |
| Cc1cccc(C2CC(c3ccc(O)cc3)=NN2C)c1 (stereo not given) | 3.76 |
| Cc1ccc(C2CC(c3ccccc3)=NN2C)cc1 (stereo not given) | 0.98 |
| CN1N=C(c2ccccc2)CC1c1ccccc1F (stereo not given) | 2.45 |
| CN1N=C(c2ccccc2)CC1c1ccccc1Cl (stereo not given) | 3.56 |
| CN1N=C(c2ccc(O)cc2)CC1c1ccc(F)cc1 (stereo not given) | 3.56 |
| CN1N=C(c2ccccc2)CC1c1cccc(F)c1 (stereo not given) | 1.78 |
| CN1N=C(c2ccc(O)cc2)CC1c1ccccc1 (stereo not given) | 4.43 |
| CN1N=C(c2ccccc2)CC1c1ccc(F)cc1 (stereo not given) | 2.15 |
| Cc1ccccc1C1CC(c2ccc(O)cc2O)=NN1C (stereo not given) | 3.31 |
| CN1N=C(c2ccc(O)cc2)CC1c1cccc(Cl)c1 (stereo not given) | 3.32 |
| CN1N=C(c2ccc(O)cc2O)CC1c1ccccc1F (stereo not given) | 3.59 |
| CN1N=C(c2ccccc2)CC1c1cccc(Cl)c1 (stereo not given) | 2.92 |
| CN1N=C(c2ccc(O)cc2O)CC1c1ccccc1Cl (stereo not given) | 2.48 |
| CN1N=C(c2ccc(O)cc2)CC1c1ccccc1Cl (stereo not given) | 4.02 |
| Cc1cccc(C2CC(c3ccccc3)=NN2C)c1 (stereo not given) | 2.04 |

====

- Assayed System: Amine oxidase [flavin-containing] A (Homo sapiens)
- Sequence (P21397 whole entry): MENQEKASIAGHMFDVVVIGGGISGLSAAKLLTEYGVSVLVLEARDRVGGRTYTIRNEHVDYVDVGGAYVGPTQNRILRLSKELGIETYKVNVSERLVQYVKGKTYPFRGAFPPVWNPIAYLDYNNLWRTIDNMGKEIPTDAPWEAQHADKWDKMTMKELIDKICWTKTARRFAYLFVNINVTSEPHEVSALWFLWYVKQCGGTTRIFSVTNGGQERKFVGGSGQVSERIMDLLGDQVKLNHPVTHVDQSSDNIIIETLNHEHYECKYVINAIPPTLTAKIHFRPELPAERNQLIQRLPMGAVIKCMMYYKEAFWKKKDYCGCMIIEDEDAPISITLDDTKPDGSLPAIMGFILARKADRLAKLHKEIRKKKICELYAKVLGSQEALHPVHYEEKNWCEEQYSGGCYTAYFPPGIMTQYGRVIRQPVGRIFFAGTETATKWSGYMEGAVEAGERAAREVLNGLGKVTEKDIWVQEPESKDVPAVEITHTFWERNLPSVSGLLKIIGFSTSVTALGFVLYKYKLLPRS
- Procedure Summary: Inhibition of human recombinant microsomal MAO-A expressed in baculovirus-infected insect BTI-TN-5B1-4 cells assessed as p-tyramine conversion to H2O2 by fluorescence assay
compounds and their reported log10 IC50
Measured Metric: log10 IC50 (log10 of the value in µM)

| Compound | Assayed System | log10 IC50 |
| --- | --- | --- |
| CN1N=C(c2ccc(O)cc2)CC1c1cccc(Cl)c1 (stereo not given) | Amine oxidase [flavin-containing] A (Homo sapiens) | 1.27 |
| CN1N=C(c2ccc(O)cc2O)CC1c1cccc(Cl)c1 (stereo not given) | Amine oxidase [flavin-containing] A (Homo sapiens) | -0.38 |
| Cc1ccccc1C1CC(c2ccccc2)=NN1C (stereo not given) | Amine oxidase [flavin-containing] A (Homo sapiens) | 0.51 |
| Cc1ccc(C2CC(c3ccccc3)=NN2C)cc1 (stereo not given) | Amine oxidase [flavin-containing] A (Homo sapiens) | 0.14 |
| Cc1ccccc1C1CC(c2ccc(O)cc2O)=NN1C (stereo not given) | Amine oxidase [flavin-containing] A (Homo sapiens) | 0.60 |

====

- Assayed System: Amine oxidase [flavin-containing] A (Homo sapiens)
- Sequence (P21397 whole entry): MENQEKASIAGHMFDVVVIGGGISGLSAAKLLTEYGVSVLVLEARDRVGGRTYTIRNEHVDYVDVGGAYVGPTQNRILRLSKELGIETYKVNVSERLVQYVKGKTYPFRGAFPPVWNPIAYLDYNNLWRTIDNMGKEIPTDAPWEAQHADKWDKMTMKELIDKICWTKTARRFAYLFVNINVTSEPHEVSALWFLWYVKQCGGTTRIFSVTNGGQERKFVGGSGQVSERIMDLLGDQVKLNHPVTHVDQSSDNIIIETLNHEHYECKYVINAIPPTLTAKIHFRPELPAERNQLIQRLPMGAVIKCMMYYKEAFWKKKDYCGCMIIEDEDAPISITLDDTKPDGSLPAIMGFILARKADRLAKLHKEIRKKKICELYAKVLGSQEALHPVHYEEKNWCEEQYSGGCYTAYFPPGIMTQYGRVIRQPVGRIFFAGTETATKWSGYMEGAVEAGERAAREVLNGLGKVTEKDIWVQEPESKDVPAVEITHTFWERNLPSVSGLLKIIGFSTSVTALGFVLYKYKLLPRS
- Procedure Summary: Inhibition of human recombinant microsomal MAO-A expressed in baculovirus-infected insect BTI-TN-5B1-4 cells assessed as p-tyramine conversion to H2O2 by fluorescence assay
Measured Metric: log10 of IC50 (log10 of the value in µM)

| Compound | Assayed System | log10 of IC50 |
| --- | --- | --- |
| CN1N=C(c2ccccc2)CC1c1ccccc1 (stereo not drawn) | Amine oxidase [flavin-containing] A (Homo sapiens) | 0.23 |
| Cc1cccc(C2CC(c3ccc(O)cc3)=NN2C)c1 (stereo not drawn) | Amine oxidase [flavin-containing] A (Homo sapiens) | 1.21 |
| Cc1ccccc1C1CC(c2ccc(O)cc2)=NN1C (stereo not drawn) | Amine oxidase [flavin-containing] A (Homo sapiens) | 1.34 |
| CN1N=C(c2ccc(O)cc2O)CC1c1ccc(Cl)cc1 (stereo not drawn) | Amine oxidase [flavin-containing] A (Homo sapiens) | 0.14 |
| CN1N=C(c2ccc(O)cc2O)CC1c1ccc(F)cc1 (stereo not drawn) | Amine oxidase [flavin-containing] A (Homo sapiens) | -0.09 |
| CN1N=C(c2ccccc2)CC1c1ccccc1F (stereo not drawn) | Amine oxidase [flavin-containing] A (Homo sapiens) | 0.45 |
| CN1N=C(c2ccc(O)cc2)CC1c1ccccc1Cl (stereo not drawn) | Amine oxidase [flavin-containing] A (Homo sapiens) | 1.07 |
| CN1N=C(c2ccccc2)CC1c1cccc(Cl)c1 (stereo not drawn) | Amine oxidase [flavin-containing] A (Homo sapiens) | 1.71 |
| CN1N=C(c2ccccc2)CC1c1ccc(F)cc1 (stereo not drawn) | Amine oxidase [flavin-containing] A (Homo sapiens) | 0.48 |
| CN1N=C(c2ccc(O)cc2O)CC1c1ccccc1Cl (stereo not drawn) | Amine oxidase [flavin-containing] A (Homo sapiens) | 0.04 |
| Cc1ccc(C2CC(c3ccc(O)cc3)=NN2C)cc1 (stereo not drawn) | Amine oxidase [flavin-containing] A (Homo sapiens) | 0.96 |
| CN1N=C(c2ccc(O)cc2)CC1c1ccc(Cl)cc1 (stereo not drawn) | Amine oxidase [flavin-containing] A (Homo sapiens) | 1.10 |
| CN1N=C(c2ccccc2)CC1c1cccc(F)c1 (stereo not drawn) | Amine oxidase [flavin-containing] A (Homo sapiens) | 0.26 |

Source of measurements: ChEMBL document CHEMBL2417365
